# Test Description: Inhibition of Plasmodium falciparum recombinant falcipain-2 using Cbz-Leu-Arg-AMC as substrate by standard fluorescence assay
# maps each entry to its log10 Ki
Note: values are log10 of Ki expressed in µM.

QUERY: # query: log10 Ki of entry O=C(/C=C/C(=O)N[C@@H](Cc1ccccc1)C(=O)OCc1ccccc1)N[C@@H](Cc1ccccc1)C(=O)OCc1ccccc1
RESULT: -0.01

QUERY: # query: log10 Ki of entry CCOC(=O)/C=C/CCOC(=O)[C@H](Cc1ccccc1)NC(=O)OCc1ccccc1
RESULT: 1.46

QUERY: # query: log10 Ki of entry CC(C)C[C@H](NC(=O)[C@H]1O[C@@H]1C(=O)O)C(=O)NCCCCN=C(N)N [E-64]
RESULT: -1.60

QUERY: # query: log10 Ki of entry C[C@H](NC(=O)[C@H](Cc1ccccc1)NC(=O)/C=C\C(=O)O)C(=O)OCc1ccccc1
RESULT: 1.40

QUERY: # query: log10 Ki of entry CCOC(=O)/C=C/CN[C@@H](Cc1ccccc1)C(=O)OCc1ccccc1
RESULT: 2.18

QUERY: # query: log10 Ki of entry O=C(/C=C\C(=O)N[C@@H](Cc1ccccc1)C(=O)OCc1ccccc1)N[C@@H](Cc1ccccc1)C(=O)O
RESULT: 1.01

QUERY: # query: log10 Ki of entry CCOC(=O)/C=C/CN[C@@H](CCC(N)=O)C(=O)N[C@H](C(=O)N[C@H](C(=O)N[C@@H](C)C(=O)OCc1ccccc1)C(C)C)C1CCCCC1
RESULT: 0.83

QUERY: # query: log10 Ki of entry CC(C)C[C@H](NC(=O)[C@H](C)NC(=O)[C@H](Cc1ccccc1)NC(=O)/C=C\C(=O)O)C(=O)OCc1ccccc1
RESULT: 1.02

====

# Target Under Test: Rhodesain (Trypanosoma brucei rhodesiense) (UniProt Q95PM0)
# Sequence (Q95PM0 1-450): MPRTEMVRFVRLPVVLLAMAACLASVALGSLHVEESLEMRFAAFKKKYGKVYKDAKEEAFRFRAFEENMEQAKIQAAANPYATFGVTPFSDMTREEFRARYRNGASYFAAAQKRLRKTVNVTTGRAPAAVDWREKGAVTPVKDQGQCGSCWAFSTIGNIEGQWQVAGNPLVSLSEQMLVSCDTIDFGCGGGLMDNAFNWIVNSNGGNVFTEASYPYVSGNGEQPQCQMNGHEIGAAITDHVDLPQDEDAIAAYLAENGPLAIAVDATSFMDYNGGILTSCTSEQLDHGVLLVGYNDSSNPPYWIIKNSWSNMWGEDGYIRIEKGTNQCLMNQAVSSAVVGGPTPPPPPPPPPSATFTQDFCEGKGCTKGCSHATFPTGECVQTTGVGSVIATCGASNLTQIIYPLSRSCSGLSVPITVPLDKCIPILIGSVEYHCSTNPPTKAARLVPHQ
# Test Description: Inhibition of Trypanosoma brucei rhodesiense recombinant rhodesain at 100 uM by standard fluorescence assay
The source made the active and inactive calls. The rule behind the calls is not given here. Residues, ends and D or L forms follow the SMILES beside them. *: point of attachment. X1 = O=C(/C=C/CO)*
Endpoint: inhibition

The examples below pair each entry with its known result.
{"columns": ["Molecule", "Observed Measurement"],
 "data": [
  ["CC(C)C[C@H](NC(=O)[C@H](CCC(N)=O)NC(=O)/C=C/CO)C(=O)N[C@H](C(=O)N[C@H](C(N)=O)C(C)C)C(C)C (X1-QLVV-NH2)", "inactive"],
  ["CCOC(=O)/C=C/CCOC(=O)[C@H](Cc1ccccc1)NC(=O)OCc1ccccc1", "36%"],
  ["CCOC(=O)/C=C/C(=O)O.CCOC(=O)/C=C/C(=O)OC[C@H](CCC(N)=O)NC(=O)OC(C)(C)C", "inactive"],
  ["CCOC(=O)/C=C/N[C@@H](CC(N)=O)C(=O)OC(C)(C)C", "inactive"],
  ["CCOC(=O)/C=C/OC[C@H](CCC(N)=O)NC(=O)OC(C)(C)C", "inactive"]
]}

QUERY: Request - read-out inhibition | tested on Rhodesain (Trypanosoma brucei rhodesiense) (UniProt Q95PM0) | molecule CCOC(=O)/C=C/C(=O)O.CCOC(=O)/C=C/C(=O)OC[C@H](CCC(N)=O)NC(=O)[C@@H](NC(=O)OC(C)(C)C)c1ccccc1
RESULT: 25%

QUERY: Request - read-out inhibition | tested on Rhodesain (Trypanosoma brucei rhodesiense) (UniProt Q95PM0) | molecule CCOC(=O)/C=C/COC(=O)[C@H](CCC(N)=O)NC(=O)[C@H](CC(C)C)NC(=O)OC(C)(C)C
RESULT: inactive

====

# maps each entry to its pKi
# Target Under Test: Rhodesain (Trypanosoma brucei rhodesiense, UniProt Q95PM0)
# Test Description: Inhibition of Trypanosoma brucei rhodesiense recombinant rhodesain by standard fluorescence assay
Schema: pKi number; meaning minus log10 of the concentration expressed in molar units.

{"columns": ["Compound String", "Endpoint", "Observed Measurement"],
 "data": [
  ["CCOC(=O)/C=C/CN[C@@H](CCC(N)=O)C(=O)N[C@H](C(=O)N[C@H](C(=O)N[C@@H](C)C(=O)OCc1ccccc1)C(C)C)C1CCCCC1", "pKi", 5.24],
  ["CCOC(=O)/C=C/[C@H](CCC(=O)NC(c1ccccc1)(c1ccccc1)c1ccccc1)NC(=O)OC(C)(C)C", "pKi", 5.37]
]}

QUERY: # query: pKi of entry C[C@H](NC(=O)[C@H](Cc1ccccc1)NC(=O)/C=C\C(=O)N[C@@H](Cc1ccccc1)C(=O)OCc1ccccc1)C(=O)O
RESULT: 5.85

QUERY: # query: pKi of entry CCOC(=O)/C=C/[C@H](CCC(=O)NC(c1ccccc1)(c1ccccc1)c1ccccc1)NC(=O)[C@@H](NC(=O)OC(C)(C)C)c1ccccc1
RESULT: 6.33

====

# Test Description: Inhibition of Plasmodium falciparum recombinant falcipain-2 using Cbz-Leu-Arg-AMC as substrate by standard fluorescence assay
Endpoint: pKi
Schema: pKi number; meaning minus log10 of the concentration expressed in molar units.

The examples below pair each entry with its known result.
{"columns": ["Compound String", "pKi"],
 "data": [
  ["C/C=C/C(=O)N[C@@H](Cc1ccccc1)C(=O)OCc1ccccc1", 4.69],
  ["CCOC(=O)/C=C\\C(=O)N[C@@H](Cc1ccccc1)C(=O)N[C@@H](C)C(=O)N[C@@H](CC(C)C)C(=O)OCc1ccccc1", 5.18],
  ["CCOC(=O)/C=C/COC(=O)[C@H](CCC(N)=O)NC(=O)OC(C)(C)C", 4.42],
  ["CCOC(=O)/C=C/[C@@H](CCC(=O)NC(c1ccccc1)(c1ccccc1)c1ccccc1)NC(=O)[C@@H](NC(=O)OC(C)(C)C)c1ccccc1", 6.31]
]}

QUERY: # query: pKi of entry CCOC(=O)/C=C\C(=O)N[C@@H](Cc1ccccc1)C(=O)OCc1ccccc1
RESULT: 4.58

QUERY: # query: pKi of entry CCOC(=O)/C=C\[C@H](Cc1ccccc1)NC(=O)OC(C)(C)C
RESULT: 4.78

QUERY: # query: pKi of entry CCOC(=O)/C=C/[C@H](CCC(=O)NC(c1ccccc1)(c1ccccc1)c1ccccc1)NC(=O)OC(C)(C)C
RESULT: 5.74

QUERY: # query: pKi of entry CCOC(=O)/C=C/C(=O)N[C@@H](CC(=O)NC(c1ccccc1)(c1ccccc1)c1ccccc1)C(=O)OC
RESULT: 4.92

QUERY: # query: pKi of entry CCOC(=O)/C=C/C(=O)N[C@@H](Cc1ccccc1)C(=O)OCc1ccccc1
RESULT: 5.33

QUERY: # query: pKi of entry CCOC(=O)/C=C/[C@H](CCC(=O)NC(c1ccccc1)(c1ccccc1)c1ccccc1)NC(=O)[C@@H](NC(=O)OC(C)(C)C)c1ccccc1
RESULT: 6.35

QUERY: # query: pKi of entry CCOC(=O)/C=C/COC(=O)[C@H](CCC(N)=O)NC(=O)[C@@H](NC(=O)OC(C)(C)C)C1CCCCC1
RESULT: 4.60

QUERY: # query: pKi of entry C[C@H](NC(=O)[C@H](Cc1ccccc1)NC(=O)/C=C\C(=O)N[C@@H](Cc1ccccc1)C(=O)OCc1ccccc1)C(=O)O
RESULT: 5.42

QUERY: # query: pKi of entry CCOC(=O)/C=C/COC(=O)[C@H](CC(N)=O)NC(=O)OC(C)(C)C
RESULT: 4.77

QUERY: # query: pKi of entry CCOC(=O)/C=C/COC(=O)[C@H](CCC(N)=O)NC(=O)[C@H](CC(C)C)NC(=O)[C@H](C)NC(=O)OC(C)(C)C
RESULT: 5.51

====

# Target Under Test: Rhodesain (Trypanosoma brucei rhodesiense)
# Test Description: Inhibition of Trypanosoma brucei rhodesiense recombinant rhodesain at 100 uM by standard fluorescence assay
Active and inactive are the calls of the source. No cut-off for these calls is given here.
Endpoint: inhibition

The examples below pair each entry with its known result.
{"columns": ["Compound String", "Observed Measurement"],
 "data": [
  ["CCOC(=O)/C=C/N[C@@H](CCC(N)=O)C(=O)OC(C)(C)C", "inactive"],
  ["CCOC(=O)/C=C\\C(=O)N[C@@H](Cc1ccccc1)C(=O)N[C@@H](C)C(=O)OCc1ccccc1", "43%"],
  ["CCOC(=O)/C=C\\[C@H](Cc1ccccc1)NC(=O)OC(C)(C)C", "inactive"],
  ["O=C(O)/C=C/C(=O)N[C@@H](Cc1ccccc1)C(=O)OCc1ccccc1", "11%"],
  ["O=C(O)/C=C\\C(=O)N[C@@H](Cc1ccccc1)C(=O)OCc1ccccc1", "inactive"],
  ["CCOC(=O)/C=C\\CNC(=O)[C@@H](Cc1ccccc1)NC(=O)OC(C)(C)C", "47%"],
  ["CCOC(=O)/C=C/C(=O)N[C@@H](CCC(N)=O)C(=O)OC(C)(C)C", "inactive"],
  ["CCOC(=O)/C=C/C(=O)N[C@@H](CC(=O)NC(c1ccccc1)(c1ccccc1)c1ccccc1)C(=O)OC", "20%"]
]}

Proceed to the following item.
QUERY: Request - read-out inhibition | tested on Rhodesain (Trypanosoma brucei rhodesiense) | molecule CCOC(=O)/C=C\C(=O)N[C@@H](Cc1ccccc1)C(=O)N[C@@H](C)C(=O)N[C@@H](CC(C)C)C(=O)OCc1ccccc1
RESULT: 29%
